tested on: KATO III stomach cancer cell line; assay: cells; conditions: Homo sapiens
Description: Antiproliferative activity against human KATO III stomach cancer cell line
TEST_READOUT: pIC50
Scale for pIC50: -log10 of concentration given in mol/L; no unit attached.

get_value(item= `COc1cc(OC)cc(N(CCNC(C)C)c2ccc3ncc(-c4cnn(C)c4)nc3c2)c1` , readout=pIC50) returns 8.40

###

assay: Inhibition of CD4 (unknown origin)
TEST_READOUT: IC50 (nM)
Return type: number; implicit unit nM.

get_value(item= `CCn1c(C)nc2c(F)cc(-c3nc(Nc4ccc(CNC(=O)CCCCCCC(=O)NO)cc4)ncc3F)cc21` , readout=IC50) returns 1.2
